Parameter IC50, tested on P2Y purinoceptor 12 (Homo sapiens, UniProt Q9H244), listed per item.
Sequence (Q9H244 whole entry): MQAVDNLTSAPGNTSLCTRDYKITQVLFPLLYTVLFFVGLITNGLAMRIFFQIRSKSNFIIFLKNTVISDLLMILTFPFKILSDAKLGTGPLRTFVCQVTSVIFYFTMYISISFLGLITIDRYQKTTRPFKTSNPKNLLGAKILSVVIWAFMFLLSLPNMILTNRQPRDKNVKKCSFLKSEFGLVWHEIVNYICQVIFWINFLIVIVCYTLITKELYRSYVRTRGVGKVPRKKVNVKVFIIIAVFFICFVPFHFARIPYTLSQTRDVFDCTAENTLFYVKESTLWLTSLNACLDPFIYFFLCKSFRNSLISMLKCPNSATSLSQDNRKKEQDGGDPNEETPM
Observable: IC50 (nM)

# count of solved cases: 5
INSERT INTO results (compound, measured_on, readout_number) VALUES
  ('CCCC(=O)c1cc(C#N)c(N2CCC(C(=O)NS(=O)(=O)C(C)c3ccccc3)CC2)nc1C (racemic)', 'P2Y purinoceptor 12 (Homo sapiens, UniProt Q9H244)', 190),
  ('CCCC(=O)c1cc(C#N)c(N2CCC(C(=O)NS(=O)(=O)Cc3ccc(C)c(F)c3)CC2)nc1C', 'P2Y purinoceptor 12 (Homo sapiens, UniProt Q9H244)', 130),
  ('CCCC(=O)c1cc(C#N)c(N2CCC(C(=O)NS(=O)(=O)Cc3ccccc3Cl)CC2)nc1C', 'P2Y purinoceptor 12 (Homo sapiens, UniProt Q9H244)', 270),
  ('CCCC(=O)c1cc(C#N)c(N2CCC(C(=O)NS(=O)(=O)Cc3ccc(F)cc3F)CC2)nc1C', 'P2Y purinoceptor 12 (Homo sapiens, UniProt Q9H244)', 42),
  ('CCCC(=O)c1cc(C#N)c(N2CCC(C(=O)NS(=O)(=O)Cc3ccc(Cl)cc3)CC2)nc1C', 'P2Y purinoceptor 12 (Homo sapiens, UniProt Q9H244)', 57);

a. CCCC(=O)c1cc(C#N)c(N2CCC(C(=O)NS(=O)(=O)Cc3ccc(C)cc3)CC2)nc1C
b. CCCC(=O)c1cc(C#N)c(N2CCC(C(=O)NS(=O)(=O)Cc3ccccc3)CC2)nc1CF
When a and b are compared, which has the higher number for IC50? Please indicate the selected item by its label.
b
(b: 93 nM, a: 59 nM)

I. CCCC(=O)c1cc(C#N)c(N2CCC(C(=O)NS(=O)(=O)Cc3ccccc3)CC2)nc1CCC
II. CCCC(=O)c1cc(C#N)c(N2CCC(C(=O)NS(=O)(=O)Cc3ccccc3)CC2)nc1C
Smaller IC50 value? Options are I and II When you have decided, please share the label of that item.
II
